target: human glucagon-like peptide 1 receptor (GLP-1R) (human, UniProt P43220); assay: cell-based or functional assay
Square brackets hold non-standard residues; d marks the D form. Aib = CC(C)(N)C(=O)O
Examples of binders with documented EC50 GLP-1 (nM); cAMP AlphaScreen follow.
assay-readout: EC50 GLP-1 (nM); cAMP AlphaScreen

[
  {
    "binder": "H-HGEGSFSSELATILDEQAARDFIAWLIQHKITD-NH2 [Compound 40]",
    "assay-readout": "EC50 GLP-1 (nM); cAMP AlphaScreen",
    "data-value": 1.4
  },
  {
    "binder": "H-H[Aib]EGTFTDELATILDEQAARDFIAWLQAQKITD-OH (not fully specified; printed as Hy-H[Aib]EGTFTDELATILDEQAARDFIAWLQAQKITD-OH) [Compound 29]",
    "assay-readout": "EC50 GLP-1 (nM); cAMP AlphaScreen",
    "data-value": 0.044
  },
  {
    "binder": "HGDGSFSDEMNTILDNLAARDFINWLIQTKITD [Teduglutide ([Gly2]-hGLP-2 (1-33))]",
    "assay-readout": "EC50 GLP-1 (nM); cAMP AlphaScreen",
    "data-value": 39
  },
  {
    "binder": "H-HGEGTFTSELATILDEQAARDFIAWLIAHKITD-OH [Compound 38]",
    "assay-readout": "EC50 GLP-1 (nM); cAMP AlphaScreen",
    "data-value": 0.008
  }
]
